Listed compounds paired with reported cytotoxicity at 70.5 h
test: Human HepG2 cell viability assay in 384 well format; format: toxicity, cell-based; design: dose 125 nL, time 70.5 hour; concentration not given beside the values; conditions: HepG2 cells, read-out: Inhibition
Express it in %; write the number only.

{"compound": "COc1ccccc1CC(=O)NCc1c(C)nc2cc(=O)[nH]n2c1C", "measured-value": -8.5}

// cytotoxicity at 70.5 h lookup, key: CCc1noc(C)c1C(=O)N1CCCCC1Cn1cc(C)cn1 (configuration not stated) 46.7

Quick one: cytotoxicity at 70.5 h for `CC(C)c1nc2oc(C(=O)N3CCOCC3)c(N)c2c2c1CCCC2` ? -16.6

Need cytotoxicity at 70.5 h of `COCCC(=O)N1C[C@@H](c2ccccc2F)[C@@]2(CCCC(=O)N2)C1` , thanks. -7.07

What value of cytotoxicity at 70.5 h has been recorded for this entry: `CC(C)NC(=O)c1ccn(COc2c(Cl)cccc2Cl)n1` -8.01

Request the reported cytotoxicity at 70.5 h associated with COCCC1COC2(CCN(C(=O)CC3CCCC3)CC2)C1 (configuration not stated) -3.15

So what's the measured cytotoxicity at 70.5 h for this one? COc1ccc(CN2CCC3(CC2)NC(=O)CC3c2cnn(C)c2)cc1 (configuration not stated) -8.08

So what's the measured cytotoxicity at 70.5 h for this one? `Fc1ccc(-c2n[nH]cc2-c2ccnc(NCCN3CCCC3)n2)cc1` 24

Which cytotoxicity at 70.5 h value is on record for `Nc1nnc(SCC(=O)c2cc3c(cc2Cl)NC(=O)C3)s1` ? -25.4

Record request: cytotoxicity at 70.5 h value, item `COc1ccc(-c2cn([C@H](CO)CC(C)C)nn2)cn1` -4.51

Field request: cytotoxicity at 70.5 h | item: Cc1cc(CNC(=O)N2CCN(C(C)c3cccnc3)CC2)c(C)o1 (configuration not stated) -0.922

====

test: Human HepG2 cell viability assay in 384 well format; assay type: toxicity, cell-based; parameters: dose 125 nL, time 70.5 hour; concentration not given beside the values; details: HepG2 cells, read-out: Inhibition
Values of cytotoxicity at 70.5 h strictly less than -10% map to 1, and values of at least -10% map to -1.

{"compound": "O=C(NCC1(O)CCOCC1)c1ccn(-c2ccccc2F)n1", "cat": -1}

Alright, here's another compound for you.
Does this compound meet the criterion cytotoxicity at 70.5 h < -10%? `CCc1cc(CNC(=O)NCc2ccc(N3CCCCC3)cc2)on1` -1

====

assay: Human HepG2 cell viability assay in 384 well format; type: toxicity, cell-based; design: dose 125 nL, time 70.5 hour; concentration not given beside the values; details: HepG2 cells, read-out: Inhibition
quantity-name: cytotoxicity at 70.5 h (%)
I only need the number, in %, no unit after it.

{"compound": "O=C(Nc1cc(-c2ccncc2)no1)C1CCC1", "cytotoxicity at 70.5 h, %": -10.3}

Please look up its cytotoxicity at 70.5 h: CCc1cnc(CN2CCCC(c3cc(C)[nH]n3)C2)o1 (stereo not given) -8.59

Quick check: cytotoxicity at 70.5 h of `CC(=O)N1CCC(Oc2ccc(C#N)cn2)CC1` ? -3.09

Entry `CCOCCN1C[C@H](c2cccc(OC)c2)[C@@H](N)C1` has what cytotoxicity at 70.5 h? -4.15

Could you share which cytotoxicity at 70.5 h value was measured for `N#Cc1ccc(CN(CC(N)=O)C2CCCC2)c(Br)c1` ? -6.26

Return reported cytotoxicity at 70.5 h; argument: Cc1ccc(CN2CCOCC3(CCN(Cc4cccs4)C3)C2)o1 (stereo not given) 0.0959

// query cytotoxicity at 70.5 h value for entry O=C(CN1CCCC1CCCO)NCc1ccccn1 (stereo not given) 1.57

Tell me the measured cytotoxicity at 70.5 h of COc1ccc(NC(=O)CCC2CCCN(S(=O)(=O)C3CC3)C2)cc1Cl (stereo not given) , please. 5.12

Fill blank: measured cytotoxicity at 70.5 h of the compound `CN(C)Cc1cncc2c1CCN(Cc1cnn(C)c1)C2` is ____. -0.555

Record request: cytotoxicity at 70.5 h value, item `COCc1n[nH]/c(=N\C(=O)c2c3c(nc4onc(C)c24)CCC3)s1` -3.26

What value of cytotoxicity at 70.5 h has been recorded for this entry: `CN(C)c1cc(C(=O)Nc2cccnc2N2CCSCC2)ccn1` -9.49

Suppose we examine the compound CCOc1ncccc1CNC(=O)N1CCCC1c1ccncc1 (stereo not given) ; what cytotoxicity at 70.5 h value has been reported? -8.99

Please report the recorded cytotoxicity at 70.5 h for O=C(Cc1c[nH]c(=O)[nH]c1=O)N1CCCCC1CCc1cccc(O)c1 (stereo not given) . -5.29

State the recorded cytotoxicity at 70.5 h for this entry: Cc1nccn1C1CCCN(C(=O)CCc2nc(C(C)C)no2)C1 (stereo not given) -11.2

What cytotoxicity at 70.5 h value was documented for this compound, CCn1ncnc1C(C)NC(=O)C1CCN(C(=O)COC)CC1 (stereo not given) ? -8.09

====

Catalogue of cytotoxicity at 70.5 h values
assay: Human HepG2 cell viability assay in 384 well format; assay type: toxicity, cell-based; set-up: dose 125 nL, time 70.5 hour; concentration not given beside the values; settings: HepG2 cells, read-out: Inhibition
Give your result in % as a bare value.

{"compound": "CCCNC(=O)CCNC(=O)N1CCc2c(F)ccc(F)c2C1", "result-units": "%", "cytotoxicity at 70.5 h": 3.2}
{"compound": "CN1CCCC2(CCN(c3cc(C(F)(F)F)nc(N(C)C)n3)C2)C1=O (stereo not given)", "result-units": "%", "cytotoxicity at 70.5 h": 10.3}
{"compound": "O=C(NCCc1coc(-c2ccc(F)cc2)n1)NC1CCC(O)CC1 (stereo not given)", "result-units": "%", "cytotoxicity at 70.5 h": 27.6}
{"compound": "COCc1nc(C(=O)N(Cc2ccccc2)CC(C)C(=O)O)cs1 (stereo not given)", "result-units": "%", "cytotoxicity at 70.5 h": -4.63}

From here, focus on the item given below.
What value of cytotoxicity at 70.5 h has been reported for the following compound? CCN1CC(COC(=O)c2cc(Br)ccc2F)CC1=O (stereo not given) 0.441

====

experiment: Human HepG2 cell viability assay in 384 well format; assay type: toxicity, cell-based; parameters: dose 125 nL, time 70.5 hour; concentration not given beside the values; conditions: HepG2 cells, read-out: Inhibition
quantity-name: cytotoxicity at 70.5 h (%)
The answer is to be given in %; state only the numeric part.

{"molecule": "CC(C)Cc1cc(C(=O)N2CCC(Cc3cnn(C)c3)C2)cc(O)n1 (stereo not given)", "quantity-name": "cytotoxicity at 70.5 h", "result-units": "%", "measured-value": -11.1}
{"molecule": "CC(C)(C)CC(=O)N[C@@H]1CO[C@H](CNC(=O)c2ccncc2)[C@H]1O", "quantity-name": "cytotoxicity at 70.5 h", "result-units": "%", "measured-value": -2.51}
{"molecule": "CC(=O)N1CCC2(C=C(C(=O)NC3CC3)c3ccccc32)CC1", "quantity-name": "cytotoxicity at 70.5 h", "result-units": "%", "measured-value": -13.7}

What value of cytotoxicity at 70.5 h has been recorded for this entry: Cc1nc(C2CCCN(C(=O)c3ccc(N4CCCC4)nn3)C2)no1 (stereo not given) 0.493

cytotoxicity at 70.5 h for `NC(=O)c1nnn(-c2ccc(Cl)cc2)n1` ? -5.31

====

assay: Human HepG2 cell viability assay in 384 well format; format: toxicity, cell-based; parameters: dose 125 nL, time 70.5 hour; concentration not given beside the values; settings: HepG2 cells, read-out: Inhibition
quantity-name: cytotoxicity at 70.5 h (%)
Give the number; % is assumed, so skip it.

Sample records with cytotoxicity at 70.5 h:
{"compound": "CC(C)c1cc(CNC(=O)NCc2cccc(N3CC=CC3)c2)on1", "cytotoxicity at 70.5 h [%]": -3.2}
{"compound": "CNC(=O)c1nnc2ccc(N3CCOCC3)cc2n1", "cytotoxicity at 70.5 h [%]": -4.03}
{"compound": "Cc1ccnc(N2CCC(C(N)=O)CC2)n1", "cytotoxicity at 70.5 h [%]": 32.9}
{"compound": "Cc1cc(CNC(=O)NC(C)c2ccccc2)no1 (stereo not drawn)", "cytotoxicity at 70.5 h [%]": 0.144}
{"compound": "CCS(=O)(=O)NCCNC(=O)c1cc(Cl)c2c(c1)OCCCO2", "cytotoxicity at 70.5 h [%]": -9.4}

Can you look up the measured cytotoxicity at 70.5 h of `c1coc(-c2nc3c(c(NCc4n[nH]c5c4CCC5)n2)CCNCC3)c1` for me? 7.72

Could you share which cytotoxicity at 70.5 h value was measured for Cc1cccc(C(C(=O)NC(C)(C)CN2CCCC2)N(C)C)c1 (stereo not drawn) ? -8.64

// cytotoxicity at 70.5 h lookup, key: `Cc1ncc(C(=O)N2CCCN(Cc3ccccc3F)CC2)c(O)n1` -12.9

// query cytotoxicity at 70.5 h value for entry c1cnc(N2CCOCC3(CNCCO3)C2)nc1 (stereo not drawn) 15.5

Look up cytotoxicity at 70.5 h: `CC(C)c1nc(-c2cc(C(=O)N3CCN(C)CC3)c3ccccn23)cs1` 9.79
